Numbers sourced from patent US12473296B2.

biological target: PERK (Homo sapiens (Human)); assay: PERK cellular assay (TR-FRET, HEK293-EGFP-eIF2α cells, tunicamycin-induced ER stress); type: cell-based; settings: tunicamycin 2 hours, read-out: Cellular IC50 (μM) (EIF2a)

Compound: CCc1cc(NC(=O)C(O)c2cc(F)cc(F)c2)ccc1-c1cnc(N)c(C(=O)NC2CC2)c1 (centres unmarked) [Example 102]
IC50: 0.001 to 0.025 µM
--
Compound: Cc1cc(NC(=O)Cc2cccc(F)c2)ccc1-c1cnc(N)c(C(=O)NC(C)C)c1
IC50: 0.501 to 1 µM
--
Compound: Cc1cccc(C(O)C(=O)Nc2ccc(-c3cnc(N)c(C(=O)NC(C)C)c3)c(C)c2)c1 (centres unmarked) [Example 67]
IC50: 0.051 to 0.1 µM
--
Compound: Cc1cccc(C(O)C(=O)Nc2ccc(-c3cnc(N)c(C(=O)NC(C)C)c3)c(Cl)c2)c1 (centres unmarked) [Example 92]
IC50: 0.001 to 0.025 µM
--
Compound: Cc1cc(NC(=O)N(C)c2ccccc2)ccc1-c1cnc(N)c(C(=O)NC(C)C)c1
IC50: > 5 µM
--
Compound: Cc1nc(C(O)C(=O)Nc2ccc(-c3cnc(N)c(C(=O)NC(C)C)c3)c(C)c2)cs1 (centres unmarked) [Example 78]
IC50: > 5 µM
--
Compound: Cc1cc(N(O)C(=O)C(O)c2cc(F)cc(F)c2)ccc1-c1cnc(N)c(C(=O)NC(C)C)c1 (centres unmarked)
IC50: 2 to 3 µM
--
Compound: Cc1cc(NC(=O)Cc2cccc3ncccc23)ccc1-c1cnc(N)c(C(=O)NC(C)C)c1
IC50: > 5 µM

----------
biological target: PERK (Homo sapiens (Human)); experiment: PERK cellular assay (TR-FRET, HEK293-EGFP-eIF2α cells, tunicamycin-induced ER stress); assay type: cell-based; conditions: tunicamycin 2 hours, read-out: Cellular IC50 (μM) (EIF2a)
Listing of entries alongside the reported IC50.
Recorded Metric: IC50

Compound: Cc1cc(NC(=O)Cc2cccc(C(F)(F)F)c2)ccc1-c1cnc(N)c(C(=O)NC(C)C)c1 [Example 202]
Result: 0.101 to 0.25 µM
//
Compound: Cc1cc(NC(=O)C(O)c2ccccc2C)ccc1-c1cnc(N)c(C(=O)NC(C)C)c1 (stereo not shown) [Example 64]
Result: 0.101 to 0.25 µM
//
Compound: Cc1cc(NC(=O)Cc2ccc(F)cc2)ccc1-c1cnc(N)c(C(=O)NC(C)C)c1 [Example 191]
Result: 1 to 2 µM
//
Compound: Cc1cc(NC(=O)C(O)c2cccc(Cl)c2)ccc1-c1cnc(N)c(C(=O)NC(C)C)c1 (stereo not shown) [Example 69]
Result: 0.026 to 0.05 µM

----------
Listing of entries alongside the reported IC50.
molecular target: PERK (Homo sapiens (Human), UniProt Q9NZJ5); experiment: PERK cellular assay (TR-FRET, HEK293-EGFP-eIF2α cells, tunicamycin-induced ER stress); format: cell-based; details: tunicamycin 2 hours, read-out: Cellular IC50 (μM) (EIF2a)
Sequence (Q9NZJ5 30-1116): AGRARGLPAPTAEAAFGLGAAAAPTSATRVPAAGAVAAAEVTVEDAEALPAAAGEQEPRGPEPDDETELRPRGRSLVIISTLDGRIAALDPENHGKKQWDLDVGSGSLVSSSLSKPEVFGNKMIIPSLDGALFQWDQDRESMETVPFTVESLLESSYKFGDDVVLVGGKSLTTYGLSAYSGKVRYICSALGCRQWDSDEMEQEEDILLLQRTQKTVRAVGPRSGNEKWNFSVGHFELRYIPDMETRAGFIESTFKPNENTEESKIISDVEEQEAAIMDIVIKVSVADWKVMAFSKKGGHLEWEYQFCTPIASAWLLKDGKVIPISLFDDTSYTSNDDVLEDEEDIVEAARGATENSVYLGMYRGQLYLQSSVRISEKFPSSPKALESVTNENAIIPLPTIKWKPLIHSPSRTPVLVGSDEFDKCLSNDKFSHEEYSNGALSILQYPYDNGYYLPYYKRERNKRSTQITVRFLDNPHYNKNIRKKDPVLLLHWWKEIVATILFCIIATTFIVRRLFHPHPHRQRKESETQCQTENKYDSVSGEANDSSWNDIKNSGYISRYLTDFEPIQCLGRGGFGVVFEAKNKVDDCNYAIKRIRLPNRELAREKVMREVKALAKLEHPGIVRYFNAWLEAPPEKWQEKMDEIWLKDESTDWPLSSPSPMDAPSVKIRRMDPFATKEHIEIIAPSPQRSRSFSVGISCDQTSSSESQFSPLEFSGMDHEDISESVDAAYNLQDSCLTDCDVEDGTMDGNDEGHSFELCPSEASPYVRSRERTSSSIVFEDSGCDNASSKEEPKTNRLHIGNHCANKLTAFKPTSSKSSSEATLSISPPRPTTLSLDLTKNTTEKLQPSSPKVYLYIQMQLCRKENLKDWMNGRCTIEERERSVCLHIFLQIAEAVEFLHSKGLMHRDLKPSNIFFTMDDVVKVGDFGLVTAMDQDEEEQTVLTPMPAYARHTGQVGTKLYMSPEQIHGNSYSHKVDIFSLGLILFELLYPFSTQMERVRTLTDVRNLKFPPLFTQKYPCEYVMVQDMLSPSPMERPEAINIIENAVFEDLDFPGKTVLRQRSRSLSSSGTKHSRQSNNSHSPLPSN

Compound: Cc1cc(NC(=O)C(O)c2cc(F)cc(F)c2)c(F)cc1-c1cnc(N)c(C(=O)NC(C)C)c1 (stereo not shown) [Example 126]
Tested Target: PERK (Homo sapiens (Human), UniProt Q9NZJ5)
IC50: 0.101 to 0.25 µM
--
Compound: COCCNC(=O)c1nc(-c2ccc(NC(=O)C(O)c3cc(F)cc(F)c3)cc2C)cnc1N (single isomer, unassigned) [Example 147]
Tested Target: PERK (Homo sapiens (Human), UniProt Q9NZJ5)
IC50: 0.026 to 0.05 µM
--
Compound: CCc1cc(NC(=O)C(O)c2cc(F)cc(F)c2)ccc1-c1cnc(N)c(C(=O)NC(C)C)n1 (stereo not shown) [Example 152]
Tested Target: PERK (Homo sapiens (Human), UniProt Q9NZJ5)
IC50: 0.101 to 0.25 µM
--
Compound: Cc1cc(NC(=O)C(O)c2cc(F)cc(F)c2)ccc1-c1cnc(N)c(C(=O)NC(C)(C)C)c1 (single isomer, unassigned) [Example 17]
Tested Target: PERK (Homo sapiens (Human), UniProt Q9NZJ5)
IC50: 0.501 to 1 µM
--
Compound: Cc1cc(NC(=O)C(O)c2cc(F)cc(F)c2)ccc1-c1cnc(N)c(C(=O)NCCO)c1 (stereo not shown) [Example 57]
Tested Target: PERK (Homo sapiens (Human), UniProt Q9NZJ5)
IC50: 2 to 3 µM
--
Compound: Cc1cc(NC(=O)C(=O)c2cc(F)cc(F)c2)ccc1-c1cnc(N)c(C(=O)NC(C)C)c1
Tested Target: PERK (Homo sapiens (Human), UniProt Q9NZJ5)
IC50: 0.101 to 0.25 µM
--
Compound: CCc1cccc(CC(=O)Nc2ccc(-c3cnc(N)c(C(=O)NC(C)C)c3)c(C)c2)c1
Tested Target: PERK (Homo sapiens (Human), UniProt Q9NZJ5)
IC50: 0.101 to 0.25 µM

----------
molecular target: PERK (Homo sapiens (Human), UniProt Q9NZJ5); test: PERK cellular assay (TR-FRET, HEK293-EGFP-eIF2α cells, tunicamycin-induced ER stress); assay type: cell-based; details: tunicamycin 2 hours, read-out: Cellular IC50 (μM) (EIF2a)
Listing of entries alongside the reported IC50.
Recorded Metric: IC50

Compound: Cc1cc(NC(=O)C(O)c2cc(F)cc(F)c2)ccc1-c1cnc(N)c(C(=O)O)c1 (stereo not drawn)
Tested Target: PERK (Homo sapiens (Human), UniProt Q9NZJ5)
Recorded Metric: IC50
Result: > 5 µM

Compound: Cc1cc(NC(=O)C(O)c2cccc3c2OCC3)ccc1-c1cnc(N)c(C(=O)NC(C)C)c1 (stereo not drawn) [Example 74]
Tested Target: PERK (Homo sapiens (Human), UniProt Q9NZJ5)
Recorded Metric: IC50
Result: 1 to 2 µM

Compound: CNC(=O)c1cc(-c2ccc(NC(=O)C(O)c3cc(F)cc(F)c3)cc2C)cnc1N (single isomer, unassigned) [Example 11]
Tested Target: PERK (Homo sapiens (Human), UniProt Q9NZJ5)
Recorded Metric: IC50
Result: 1 to 2 µM

Compound: CNc1ccc(-c2ccc(NC(=O)C(O)c3cc(F)cc(F)c3)cc2C)cn1 (stereo not drawn) [Example 172]
Tested Target: PERK (Homo sapiens (Human), UniProt Q9NZJ5)
Recorded Metric: IC50
Result: 1 to 2 µM

Compound: CC(C)NC(=O)c1cc(-c2ccc(NC(=O)C(O)c3cc(F)cc(F)c3)cc2)cnc1N (stereo not drawn) [Example 80]
Tested Target: PERK (Homo sapiens (Human), UniProt Q9NZJ5)
Recorded Metric: IC50
Result: 0.251 to 0.5 µM

Compound: Cc1cc(NC(=O)C(O)c2cc(F)cc(F)c2)ccc1-c1cncc(C(=O)NC(C)C)c1 (stereo not drawn) [Example 178]
Tested Target: PERK (Homo sapiens (Human), UniProt Q9NZJ5)
Recorded Metric: IC50
Result: 0.101 to 0.25 µM

Compound: Cc1cc(NC(=O)C(O)c2cc(F)cc(F)c2)ccc1-c1cnc(N)c(C(=O)NC2CCC2)n1 (stereo not drawn) [Example 140]
Tested Target: PERK (Homo sapiens (Human), UniProt Q9NZJ5)
Recorded Metric: IC50
Result: 0.026 to 0.05 µM

Compound: Nc1ncc(-c2ccc(NC(=O)C(O)c3cc(F)cc(F)c3)cc2Cl)cc1C(=O)NC1CC1 (stereo not drawn) [Example 84]
Tested Target: PERK (Homo sapiens (Human), UniProt Q9NZJ5)
Recorded Metric: IC50
Result: 0.001 to 0.025 µM

Compound: Cc1cc(NC(=O)C(O)c2cc(F)cc(F)c2)ccc1-c1cnc(N)c(C(=O)NC2CC(O)C2)c1 (stereo not drawn) [Example 26]
Tested Target: PERK (Homo sapiens (Human), UniProt Q9NZJ5)
Recorded Metric: IC50
Result: 0.101 to 0.25 µM

Compound: Cc1cc(NC(=O)C(O)c2cc(F)cc(F)c2)ccc1-c1cnc(C)c(C(=O)NC(C)C)c1 (stereo not drawn) [Example 176]
Tested Target: PERK (Homo sapiens (Human), UniProt Q9NZJ5)
Recorded Metric: IC50
Result: 0.501 to 1 µM

Compound: Cc1cc(NC(=O)C(O)c2ccccc2)ccc1-c1cnc(N)c(C(=O)NC(C)C)c1 (single isomer, unassigned) [Example 2]
Tested Target: PERK (Homo sapiens (Human), UniProt Q9NZJ5)
Recorded Metric: IC50
Result: 0.101 to 0.25 µM

Compound: CCc1cc(NC(=O)C(O)c2cccc(Cl)c2)ccc1-c1cnc(N)c(C(=O)NC(C)C)c1 (single isomer, unassigned) [Example 109]
Tested Target: PERK (Homo sapiens (Human), UniProt Q9NZJ5)
Recorded Metric: IC50
Result: 0.101 to 0.25 µM

Compound: Cc1cc(NC(=O)C(O)c2cc(F)cc(F)c2)ccc1-c1cnc(N)c(C(=O)NC2CCOCC2)c1 (stereo not drawn) [Example 50]
Tested Target: PERK (Homo sapiens (Human), UniProt Q9NZJ5)
Recorded Metric: IC50
Result: 0.051 to 0.1 µM

Compound: CNc1ccc(-c2ccc(NC(=O)C(O)c3cc(F)cc(F)c3)cc2C)cn1 (stereo not drawn) [Example 173]
Tested Target: PERK (Homo sapiens (Human), UniProt Q9NZJ5)
Recorded Metric: IC50
Result: > 5 µM

Compound: Cc1cc(NC(=O)C(O)c2cc(F)cc(F)c2)ccc1-c1cnc(N)c(C(=O)N(C)C)c1 (stereo not drawn) [Example 22]
Tested Target: PERK (Homo sapiens (Human), UniProt Q9NZJ5)
Recorded Metric: IC50
Result: 2 to 3 µM

Compound: Cc1cc(NC(=O)C(O)c2ccccc2)ccc1-c1cnc(N)c(C(=O)NC(C)C)c1 (single isomer, unassigned) [Example 1]
Tested Target: PERK (Homo sapiens (Human), UniProt Q9NZJ5)
Recorded Metric: IC50
Result: 0.251 to 0.5 µM

Compound: Cc1cc(NC(=O)C(O)c2cc(F)cc(F)c2)ccc1-c1cnc(N)c(C(=O)NC2CN(C)C2)c1 (stereo not drawn) [Example 46]
Tested Target: PERK (Homo sapiens (Human), UniProt Q9NZJ5)
Recorded Metric: IC50
Result: 0.501 to 1 µM

Compound: Cc1cc(NC(=O)CC2CCC2)ccc1-c1cnc(N)c(C(=O)NC(C)C)c1
Tested Target: PERK (Homo sapiens (Human), UniProt Q9NZJ5)
Recorded Metric: IC50
Result: > 5 µM

Compound: Cc1c(-c2cnc(N)c(C(=O)NC3CC3)c2)ccc(NC(=O)C(O)c2cc(F)cc(F)c2)c1F (stereo not drawn) [Example 119]
Tested Target: PERK (Homo sapiens (Human), UniProt Q9NZJ5)
Recorded Metric: IC50
Result: 0.001 to 0.025 µM

Compound: Nc1ncc(-c2ccc(NC(=O)C(O)c3cc(F)cc(F)c3)cc2Cl)cc1C(=O)NCC(F)(F)F (stereo not drawn) [Example 86]
Tested Target: PERK (Homo sapiens (Human), UniProt Q9NZJ5)
Recorded Metric: IC50
Result: 0.001 to 0.025 µM

Compound: CC(=O)N1CC(NC(=O)c2cc(-c3ccc(NC(=O)C(O)c4cc(F)cc(F)c4)cc3C)cnc2N)C1 (stereo not drawn) [Example 31]
Tested Target: PERK (Homo sapiens (Human), UniProt Q9NZJ5)
Recorded Metric: IC50
Result: 3 to 4 µM

Compound: Cc1cc(NC(=O)C(O)c2ccccc2C)ccc1-c1cnc(N)c(C(=O)NC(C)C)c1 (stereo not drawn) [Example 65]
Tested Target: PERK (Homo sapiens (Human), UniProt Q9NZJ5)
Recorded Metric: IC50
Result: 2 to 3 µM

Compound: CCc1cccc(C(O)C(=O)Nc2ccc(-c3cnc(N)c(C(=O)NC(C)C)c3)c(CC)c2)c1 (stereo not drawn) [Example 107]
Tested Target: PERK (Homo sapiens (Human), UniProt Q9NZJ5)
Recorded Metric: IC50
Result: 0.251 to 0.5 µM

Compound: Nc1ncc(-c2ccc(NC(=O)C(O)c3cc(F)cc(F)c3)cc2Cl)nc1C(=O)NC1CC1 (stereo not drawn) [Example 167]
Tested Target: PERK (Homo sapiens (Human), UniProt Q9NZJ5)
Recorded Metric: IC50
Result: 0.101 to 0.25 µM

Compound: Cc1ccc(CC(=O)Nc2ccc(-c3cnc(N)c(C(=O)NC(C)C)c3)c(C)c2)cc1
Tested Target: PERK (Homo sapiens (Human), UniProt Q9NZJ5)
Recorded Metric: IC50
Result: 1 to 2 µM

Compound: Cc1cc(NC(=O)C(O)c2cccc(C(F)(F)F)c2)ccc1-c1cnc(N)c(C(=O)NC(C)C)c1 (stereo not drawn) [Example 71]
Tested Target: PERK (Homo sapiens (Human), UniProt Q9NZJ5)
Recorded Metric: IC50
Result: 0.501 to 1 µM

Compound: CC(C)NC(=O)c1cc(-c2ccc(NC(=O)C(O)c3cc(F)cc(F)c3)c(F)c2Cl)cnc1N (stereo not drawn) [Example 123]
Tested Target: PERK (Homo sapiens (Human), UniProt Q9NZJ5)
Recorded Metric: IC50
Result: 0.001 to 0.025 µM

Compound: Cc1ccccc1C(O)C(=O)Nc1ccc(-c2cnc(N)c(C(=O)NC(C)C)c2)c(Cl)c1 (stereo not drawn) [Example 90]
Tested Target: PERK (Homo sapiens (Human), UniProt Q9NZJ5)
Recorded Metric: IC50
Result: 0.051 to 0.1 µM

Compound: Cc1ccccc1CC(=O)Nc1ccc(-c2cnc(N)c(C(=O)NC(C)C)c2)c(C)c1
Tested Target: PERK (Homo sapiens (Human), UniProt Q9NZJ5)
Recorded Metric: IC50
Result: 0.251 to 0.5 µM

Compound: CNC(=O)c1cc(-c2ccc(NC(=O)C(O)c3cc(F)cc(F)c3)cc2C)cnc1N (single isomer, unassigned) [Example 10]
Tested Target: PERK (Homo sapiens (Human), UniProt Q9NZJ5)
Recorded Metric: IC50
Result: 0.051 to 0.1 µM
